- Test system: rat chronic carcinogenicity bioassay, TD50
- METHOD_DESCRIPTION: DSSTox (CPDBAS) Carcinogenic Potency Database Summary Rat Bioassay Results
- TEST_CONDITIONS: TD50_Rat_Note: TD50 is harmonic mean of more than one positive test; greater than ten-fold variation among TD50 values for positive res; TargetSites_Rat_Female: nervous system; stomach; stronger effect = lower value
ENDPOINT_NAME: Potency

> print(dat)
   mol.smiles  value.observed
1       C1CO1  21.3 mg/kg/day

###

Entries and their measured Potency follow.
- Test system: rat chronic carcinogenicity bioassay, TD50
- METHOD_DESCRIPTION: DSSTox (CPDBAS) Carcinogenic Potency Database Summary Rat Bioassay Results
- TEST_CONDITIONS: stronger effect = lower value
ENDPOINT_NAME: Potency

> print(dat)
                                    compound  endpoint.name     value.observed
 1                             CN(N=O)C(N)=O        Potency   0.0927 mg/kg/day
 2                                Nc1ccccc1N        Potency      248 mg/kg/day
 3    Cc1cccc(Nc2cc(Cl)nc(SCC(=O)NCCO)n2)c1C        Potency     6.49 mg/kg/day
 4    O=NN1CCCC1c1cccnc1 (centres undefined)        Potency   0.0957 mg/kg/day
 5                       CCC(CC)[N+](=O)[O-]        Potency     2.37 mg/kg/day
 6                    Nc1ccc2c(c1)oc1ccccc12        Potency     2.48 mg/kg/day
 7  CN(CCCC(O)c1cccnc1)N=O (centres undefined)        Potency    0.103 mg/kg/day
 8                         CCN(CC(F)(F)F)N=O        Potency     2.52 mg/kg/day
 9                        Oc1ccccc1-c1ccccc1        Potency      232 mg/kg/day
10                                     COCCl        Potency      5.5 mg/kg/day
11                  Cc1cc(=O)n(-c2ccccc2)n1C        Potency     1230 mg/kg/day
12                                   ClCOCCl        Potency  0.00357 mg/kg/day
13  CC1(C)O[C@@H]2C[C@H]3[C@@H]4CCC5=CC(=O)C=C[C@]5(C)[C@@]4(F)[C@@H](O)C[C@]3(C)[C@]2(C(=O)CO)O1        Potency    0.053 mg/kg/day
14                                ON=C1CCCC1        Potency     40.9 mg/kg/day

###

- Test system: rat chronic carcinogenicity bioassay, TD50
- METHOD_DESCRIPTION: DSSTox (CPDBAS) Carcinogenic Potency Database Summary Rat Bioassay Results
- TEST_CONDITIONS: TD50_Rat_Note: TD50 is harmonic mean of more than one positive test; TargetSites_Rat_Female: clitoral gland; ear Zymbals gland; liver; stronger effect = lower value
ENDPOINT_NAME: Potency

> print(dat)
                   mol.smiles                               target.desc  value.observed
1  Cc1cnc2ccc3c(nc(N)n3C)c2n1  rat chronic carcinogenicity bioassay, TD50  1.66 mg/kg/day
